Data provenance is paper PMC11840605.

target: AbeH (uncultured bacterium, UniProt F6LWA5); type: biochemical, uncultured soil actinomycetes; settings: NaCl or NaBr reaction
Sequence (F6LWA5 entry or part of it): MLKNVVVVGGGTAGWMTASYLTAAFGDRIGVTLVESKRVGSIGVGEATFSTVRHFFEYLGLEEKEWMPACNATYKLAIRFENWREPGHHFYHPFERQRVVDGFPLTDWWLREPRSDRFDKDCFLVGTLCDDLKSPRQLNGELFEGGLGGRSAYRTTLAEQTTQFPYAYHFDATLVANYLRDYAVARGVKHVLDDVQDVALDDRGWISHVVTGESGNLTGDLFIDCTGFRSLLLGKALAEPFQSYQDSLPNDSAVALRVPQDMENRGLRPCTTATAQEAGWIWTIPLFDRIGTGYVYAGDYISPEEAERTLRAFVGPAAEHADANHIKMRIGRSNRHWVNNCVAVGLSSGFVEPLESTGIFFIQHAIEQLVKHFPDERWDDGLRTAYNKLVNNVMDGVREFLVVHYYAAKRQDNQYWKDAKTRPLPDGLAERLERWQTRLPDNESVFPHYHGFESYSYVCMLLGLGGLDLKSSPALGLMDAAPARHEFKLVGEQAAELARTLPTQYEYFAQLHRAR
Property Label: Halogenation (chlorination/bromination) of the substrate by AbeH, in words

Which Halogenation (chlorination/bromination) of the substrate by AbeH, in words is reported for this molecule? NC(=O)c1ccccc1N [Anthranilamide]
halogenated

Given the molecule O=C(O)CCc1c[nH]c2ccccc12 , what is its reported Halogenation (chlorination/bromination) of the substrate by AbeH, in words?
halogenated

###

target: AbeH/Trp (uncultured bacterium); assay: Isothermal titration calorimetry, FAD into AbeH preincubated with Trp; assay type: binding, uncultured soil actinomycetes; conditions: KD, FAD into AbeH/Trp, ITC, experiment of Figure 4C, 28 μM AbeH preincubated with 16 mM Trp
Property Label: Kd (nM)
The response must be a number in nM with no trailing unit.

Kd for Cc1cc2nc3c(=O)[nH]c(=O)nc-3n(C[C@H](O)[C@H](O)[C@H](O)COP(=O)(O)OP(=O)(O)OC[C@H]3O[C@@H](n4cnc5c(N)ncnc54)[C@H](O)[C@@H]3O)c2cc1C ?
2100
